Origin of values: BigSolDB 2.1

- CONDITION CONTEXT: in water, 288.15 K
VALUE TYPE: solubility (mole fraction)

- SMILES ENTRY: "O=C(O)c1cc([N+](=O)[O-])cc([N+](=O)[O-])c1O"
  RESULT: 0.000964

###

- CONDITION CONTEXT: in DMF, 293.15 K

- SMILES ENTRY: "O=C(O)c1cc([N+](=O)[O-])cc([N+](=O)[O-])c1O"
  solubility (mole fraction): 0.119

###

- CONDITION CONTEXT: in ethylene glycol, 323.15 K

- SMILES ENTRY: "O=C(O)c1cc([N+](=O)[O-])cc([N+](=O)[O-])c1O"
  solubility (mole fraction): 0.082

###

- CONDITION CONTEXT: in water, 278.15 K

- SMILES ENTRY: "O=C(O)c1cc([N+](=O)[O-])cc([N+](=O)[O-])c1O"
  solubility (mole fraction): 0.000646

###

- CONDITION CONTEXT: in isobutanol, 323.15 K

- SMILES ENTRY: "O=C(O)c1cc([N+](=O)[O-])cc([N+](=O)[O-])c1O"
  solubility (mole fraction): 0.0712

###

- CONDITION CONTEXT: in water, 313.15 K

- SMILES ENTRY: "O=C(O)c1cc([N+](=O)[O-])cc([N+](=O)[O-])c1O"
  solubility (mole fraction): 0.00245

###

- CONDITION CONTEXT: in DMF, 318.15 K

- SMILES ENTRY: "O=C(O)c1cc([N+](=O)[O-])cc([N+](=O)[O-])c1O"
  solubility (mole fraction): 0.214

###

- CONDITION CONTEXT: in 1,4-dioxane, 318.15 K
VALUE TYPE: solubility (mole fraction)

- SMILES ENTRY: "O=C(O)c1cc([N+](=O)[O-])cc([N+](=O)[O-])c1O"
  NUMBER: 0.0877

###

- CONDITION CONTEXT: in NMP, 288.15 K

- SMILES ENTRY: "O=C(O)c1cc([N+](=O)[O-])cc([N+](=O)[O-])c1O"
  solubility (mole fraction): 0.116

###

- CONDITION CONTEXT: in ethyl acetate, 313.15 K
VALUE TYPE: solubility (mole fraction)

- SMILES ENTRY: "O=C(O)c1cc([N+](=O)[O-])cc([N+](=O)[O-])c1O"
  VALUE TYPE: "solubility (mole fraction)"
  NUMBER: 0.0966

###

- CONDITION CONTEXT: in ethanol, 283.15 K

- SMILES ENTRY: "O=C(O)c1cc([N+](=O)[O-])cc([N+](=O)[O-])c1O"
  solubility (mole fraction): 0.0518

###

- CONDITION CONTEXT: in ethylene glycol, 318.15 K

- SMILES ENTRY: "O=C(O)c1cc([N+](=O)[O-])cc([N+](=O)[O-])c1O"
  solubility (mole fraction): 0.0709

###

- CONDITION CONTEXT: in ethylene glycol, 283.15 K

- SMILES ENTRY: "O=C(O)c1cc([N+](=O)[O-])cc([N+](=O)[O-])c1O"
  solubility (mole fraction): 0.0277

###

- CONDITION CONTEXT: in n-propanol, 308.15 K

- SMILES ENTRY: "O=C(O)c1cc([N+](=O)[O-])cc([N+](=O)[O-])c1O"
  solubility (mole fraction): 0.0769

###

- CONDITION CONTEXT: in water, 293.15 K
VALUE TYPE: solubility (mole fraction)

- SMILES ENTRY: "O=C(O)c1cc([N+](=O)[O-])cc([N+](=O)[O-])c1O"
  NUMBER: 0.0012

###

- CONDITION CONTEXT: in isobutanol, 308.15 K

- SMILES ENTRY: "O=C(O)c1cc([N+](=O)[O-])cc([N+](=O)[O-])c1O"
  solubility (mole fraction): 0.0439

###

- CONDITION CONTEXT: in NMP, 313.15 K

- SMILES ENTRY: "O=C(O)c1cc([N+](=O)[O-])cc([N+](=O)[O-])c1O"
  solubility (mole fraction): 0.207

###

- CONDITION CONTEXT: in n-propanol, 293.15 K

- SMILES ENTRY: "O=C(O)c1cc([N+](=O)[O-])cc([N+](=O)[O-])c1O"
  solubility (mole fraction): 0.0521

###

- CONDITION CONTEXT: in isopropanol, 288.15 K

- SMILES ENTRY: "O=C(O)c1cc([N+](=O)[O-])cc([N+](=O)[O-])c1O"
  solubility (mole fraction): 0.0348

###

- CONDITION CONTEXT: in DMF, 298.15 K

- SMILES ENTRY: "O=C(O)c1cc([N+](=O)[O-])cc([N+](=O)[O-])c1O"
  solubility (mole fraction): 0.135

###

- CONDITION CONTEXT: in acetonitrile, 278.15 K
VALUE TYPE: solubility (mole fraction)

- SMILES ENTRY: "O=C(O)c1cc([N+](=O)[O-])cc([N+](=O)[O-])c1O"
  VALUE TYPE: "solubility (mole fraction)"
  NUMBER: 0.0108

###

- CONDITION CONTEXT: in n-butanol, 283.15 K

- SMILES ENTRY: "O=C(O)c1cc([N+](=O)[O-])cc([N+](=O)[O-])c1O"
  solubility (mole fraction): 0.0141

###

- CONDITION CONTEXT: in ethanol, 288.15 K

- SMILES ENTRY: "O=C(O)c1cc([N+](=O)[O-])cc([N+](=O)[O-])c1O"
  solubility (mole fraction): 0.0582

###

- CONDITION CONTEXT: in DMSO, 298.15 K

- SMILES ENTRY: "O=C(O)c1cc([N+](=O)[O-])cc([N+](=O)[O-])c1O"
  solubility (mole fraction): 0.0869

###

- CONDITION CONTEXT: in cyclohexane, 303.15 K

- SMILES ENTRY: "O=C(O)c1cc([N+](=O)[O-])cc([N+](=O)[O-])c1O"
  solubility (mole fraction): 0.00686

###

- CONDITION CONTEXT: in NMP, 298.15 K
VALUE TYPE: solubility (mole fraction)

- SMILES ENTRY: "O=C(O)c1cc([N+](=O)[O-])cc([N+](=O)[O-])c1O"
  NUMBER: 0.146

###

- CONDITION CONTEXT: in n-butanol, 303.15 K

- SMILES ENTRY: "O=C(O)c1cc([N+](=O)[O-])cc([N+](=O)[O-])c1O"
  solubility (mole fraction): 0.0301

###

- CONDITION CONTEXT: in 1,4-dioxane, 288.15 K
VALUE TYPE: solubility (mole fraction)

- SMILES ENTRY: "O=C(O)c1cc([N+](=O)[O-])cc([N+](=O)[O-])c1O"
  NUMBER: 0.044

###

- CONDITION CONTEXT: in cyclohexane, 293.15 K

- SMILES ENTRY: "O=C(O)c1cc([N+](=O)[O-])cc([N+](=O)[O-])c1O"
  solubility (mole fraction): 0.00449

###

- CONDITION CONTEXT: in water, 298.15 K

- SMILES ENTRY: "O=C(O)c1cc([N+](=O)[O-])cc([N+](=O)[O-])c1O"
  solubility (mole fraction): 0.00145

###

- CONDITION CONTEXT: in ethylene glycol, 308.15 K
VALUE TYPE: solubility (mole fraction)

- SMILES ENTRY: "O=C(O)c1cc([N+](=O)[O-])cc([N+](=O)[O-])c1O"
  VALUE TYPE: "solubility (mole fraction)"
  RESULT: 0.054

###

- CONDITION CONTEXT: in n-butanol, 313.15 K
VALUE TYPE: solubility (mole fraction)

- SMILES ENTRY: "O=C(O)c1cc([N+](=O)[O-])cc([N+](=O)[O-])c1O"
  VALUE TYPE: "solubility (mole fraction)"
  NUMBER: 0.0424

###

- CONDITION CONTEXT: in isopropanol, 318.15 K

- SMILES ENTRY: "O=C(O)c1cc([N+](=O)[O-])cc([N+](=O)[O-])c1O"
  solubility (mole fraction): 0.0808

###

- CONDITION CONTEXT: in n-butanol, 288.15 K
VALUE TYPE: solubility (mole fraction)

- SMILES ENTRY: "O=C(O)c1cc([N+](=O)[O-])cc([N+](=O)[O-])c1O"
  VALUE TYPE: "solubility (mole fraction)"
  NUMBER: 0.0172
